- test summary: soluble on expression in E. coli; label from the status in PepcDB or PDB records
assay endpoint: soluble on expression in E. coli

- residue codes: "MGSDKIHHHHHHMEFSLERDEARLVEIASIQETYGTFLIEHLDEKTAIISGSWDPLRRCAFVNYVGLIVGEAEDLSAFQEGLPAGKFYIRYRDIDGDKPMSEAAIGDMLKARGRVSFRDPDYVVRVVHHGIFYVTKVVYERDKKQFIERKAPRRPFFSPVSMDPKYARFLVNTAHVRENQLLIDPFCGTGGILIEAALMGIRVIGNDVALSMAAGARTNLKHFHVEDFHIYNMDVSDLPVRDVDGIATDMPYGRNSYASEDLEVLYERSFRKFHEMLKPHGYASFVVSDPDLAELARPFFNIVHDVPVYQHRSLTRHFITAMRKD"
  result: "not soluble"
- residue codes: "MFNNILVVCVGNICRSPTAERLLQRYHPELKVESAGLGALVGKGADPTAISVAAEHQLSLEGHCARQISRRLCRNYDLILTMEKRHIERLCEMAPEMRGKVMLFGHWDNECEIPDPYRKSRETFAAVYTLLERSARQWAQALNAEQV"
  result: "not soluble"
- residue codes: "NTPYLRPEMFPELAILQQNWQVIRDEGLHLQQLEQIKAADKYNDAGFNSFFKTGWKRFYLKWYEDAHPSASQLCPQTTALLRDIPSVKAAMFATLPDGSRLPRHRDPYAGSLRFHLGLATPNDDRCFIEVDGQRYSWRDGEGVLFDETYIHYAENTSGENRLILFCDIERPMRYRWAQKVNHWLGRHLMSAASAPN"
  result: "not soluble"
